Assign IC50 to each entry below.
target: TTK (Homo sapiens); assay: TTK assay: screening of TTK kinase activity suppressing action using p38 MAPK peptide; assay type: biochemical; conditions: p38 MAPK peptide substrate; read-out: TTK IC50
Sequence (P33981 whole entry): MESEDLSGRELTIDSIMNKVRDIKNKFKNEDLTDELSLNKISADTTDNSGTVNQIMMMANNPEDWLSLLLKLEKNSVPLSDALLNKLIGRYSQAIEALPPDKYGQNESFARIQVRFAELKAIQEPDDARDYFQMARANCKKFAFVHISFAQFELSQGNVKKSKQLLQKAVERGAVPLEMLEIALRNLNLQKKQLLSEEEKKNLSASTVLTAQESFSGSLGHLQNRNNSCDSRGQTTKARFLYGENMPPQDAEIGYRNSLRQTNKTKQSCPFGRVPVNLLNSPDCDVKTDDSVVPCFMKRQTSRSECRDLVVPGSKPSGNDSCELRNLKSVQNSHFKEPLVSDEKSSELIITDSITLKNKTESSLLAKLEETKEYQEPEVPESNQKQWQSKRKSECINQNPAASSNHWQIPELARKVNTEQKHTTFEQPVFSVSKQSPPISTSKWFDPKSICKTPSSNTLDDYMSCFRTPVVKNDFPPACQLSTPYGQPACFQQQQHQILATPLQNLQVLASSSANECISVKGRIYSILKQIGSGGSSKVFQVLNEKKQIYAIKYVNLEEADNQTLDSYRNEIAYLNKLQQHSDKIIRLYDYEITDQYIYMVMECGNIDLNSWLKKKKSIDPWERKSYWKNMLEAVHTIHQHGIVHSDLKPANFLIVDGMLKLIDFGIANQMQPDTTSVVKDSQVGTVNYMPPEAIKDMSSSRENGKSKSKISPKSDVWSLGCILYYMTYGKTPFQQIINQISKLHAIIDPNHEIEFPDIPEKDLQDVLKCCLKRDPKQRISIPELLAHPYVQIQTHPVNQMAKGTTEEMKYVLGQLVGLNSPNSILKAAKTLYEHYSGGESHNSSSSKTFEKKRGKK
Phrase the answer as number then unit, nothing more needed.

# input Name the recorded IC50 for O=C(NC1CC1)c1ccc(-c2cnc3c(NCCCCO)cc(NC4CCCCC4)nn23)cc1 [Example 2-130] .
# output 9.7 nM

# input Name the recorded IC50 for Cc1ccc(Oc2cc(NCC3CCOCC3)c3ncc(-c4ccc(C(=O)NC5CC5)cc4)n3n2)cc1 [Example 2-103] .
# output 4.4 nM

# input Name the recorded IC50 for O=C(NC1CC1)c1ccc(-c2cnc3c(NCC4CCOCC4)cc(Oc4ccccc4Cl)nn23)cc1 [Example 2-90] .
# output 2.7 nM

# input Name the recorded IC50 for CCCNc1cc(NC2CCCCC2)nn2c(-c3ccc(C(=O)NC4CC4)cc3)cnc12 [Example 2-141] .
# output 7 nM

# input Name the recorded IC50 for C#CC1(Nc2cc(NCC3CCOCC3)c3ncc(-c4ccc(C(=O)NC5CC5)cc4)n3n2)CCCCC1 [Example 2-77] .
# output 21.3 nM

# input Name the recorded IC50 for N#Cc1ccc(-c2cn3c(-c4ccc(C(=O)NC5CC5)cc4)cnc3c(NC[C@H]3CC[C@H](C(=O)O)CC3)n2)cc1 [Example 1-239] .
# output 4.8 nM

# input Name the recorded IC50 for O=C(NC1CC1)c1ccc(-c2cnc3c(NCC4CC4)cc(NC4CCCCC4)nn23)cc1 [Example 2-132] .
# output 6.8 nM

# input Name the recorded IC50 for N#Cc1ccc(-c2cn3c(-c4ccc(C(=O)NC5CC5)cc4)cnc3c(NCCCCO)n2)cc1 [Example 1-238] .
# output 14.3 nM

# input Name the recorded IC50 for O=C(NC1CC1)c1ccc(-c2cnc3c(NCc4ccncc4)cc(NC4CCCCC4)nn23)cc1 [Example 2-155] .
# output 4.1 nM

# input Name the recorded IC50 for O=C(NC1CC1)c1ccc(-c2cnc3c(NCC4CCOCC4)cc(Oc4ccc(Cl)cc4)nn23)cc1 [Example 2-93] .
# output 3.3 nM

# input Name the recorded IC50 for O=C(NC1CC1)c1ccc(-c2cnc3c(NCC4CCOCC4)cc(N[C@H]4CC[C@H](O)CC4)nn23)cc1 [Example 2-43] .
# output 12.5 nM

# input Name the recorded IC50 for N#Cc1ccc(-c2cn3c(-c4ccc(C(=O)NC5CC5)cc4)cnc3c(NCCc3ccc(O)cc3)n2)cc1 [Example 1-228] .
# output 20.5 nM

# input Name the recorded IC50 for CN1CCN(c2cc(NCC3CCOCC3)c3ncc(-c4ccc(C(=O)NC5CC5)cc4)n3n2)CC1 [Example 2-15] .
# output 25.7 nM

# input Name the recorded IC50 for O=C(NC1CC1)c1ccc(-c2cnc3c(NCc4cncs4)cc(NC4CCCCC4)nn23)cc1 [Example 2-147] .
# output 2.9 nM

# input Name the recorded IC50 for Nc1c(F)cccc1Oc1cc(NCC2CCOCC2)c2ncc(-c3ccc(C(=O)NC4CC4)cc3)n2n1 [Example 2-98] .
# output 2.4 nM
